tested on: BT-549 breast; assay: NCI-60 one-dose screen, 48 h (100 = growth as untreated, 0 = no growth, -100 = all killed); settings: 10 µM unless noted
About 83,000 compounds went through this panel and 20% of them were active in at least one assay; those are over-represented in the sample as a whole.
Threshold 80%. growth below it: y. growth at it or above: n.

compound | assigned-class
O=C(NCc1ccccc1)c1ccc2c(c1)NC(=O)[C@@H]1CCCN21 | n
C#C[C@@]1(O)[C@@H](CO)O[C@@H](n2cc(Br)c3c(N)ncnc32)[C@@H]1O | y
O=c1[nH]nc(-c2ccccc2)c2sc(NC(=S)Nc3ccc(Cl)cc3)nc12 | n
CC(/C=C/c1ccccc1)=N/NC(=O)c1ccncc1 | n
CN(C)c1ccc(-c2ccc3[nH]c(=O)nc(-c4ccc(F)cc4)c3c2)cn1 | y
CC(=O)OC[C@]12CC[C@@H](c3cn(Cc4ccc(Cn5cc([C@@H]6CC[C@]7(COC(C)=O)CC[C@]8(C)[C@H](CC[C@@H]9[C@@]%10(C)CC[C@H](OC(C)=O)C(C)(C)[C@@H]%10CC[C@]98C)[C@@H]67)nn5)cc4)nn3)[C@@H]1[C@H]1CC[C@@H]3[C@@]4(C)CC[C@H](OC(C)=O)C(C)(C)[C@@H]4CC[C@@]3(C)[C@]1(C)CC2 | n
Cc1ccc(-c2nc(C#N)c(S(=O)(=O)N(C)CCO)o2)cc1 | y
O=C(Nc1nccs1)c1noc2ccccc12 | n
CCCCCCC/C=C/[C@H]1O[C@]23C(=O)C[C@@]4(C[C@@H](OC5OC(CO)C(O)C(O)C5O)C[C@@H]4[C@H]2C=C1C)OC3=O (stereo not given in full) | y
Nc1ccc(C2=NN(C(=O)c3cc(-c4ccc(Cl)cc4)nc4ccccc34)C(c3ccccc3)C2)cc1 (stereo not given) | y
COc1ccc(-c2cc(C(=O)N3N=C(c4ccc(N)cc4)CC3c3ccc(OC)cc3)c3cc(OC)ccc3n2)cc1 (stereo not given) | y
COc1ccc(-n2cc(-c3ccc(Cl)c(Cl)c3)[nH]c2=O)cc1OC | n
CNS(=O)(=O)c1cccc(-c2ccc3c4c(n(C)c(=O)c3c2)-c2ccccc2C4=O)c1 | y
NC[C@@H]1CCN(c2cc3c(cc2F)c(=O)n(N)c(=O)n3Cc2ccc(-c3ccccc3)cc2)C1 | y
COc1ccc2nc(-c3ccc(Cl)cc3)cc(-c3nnc(SCC(=O)Nc4ccc(/C(C)=N\O)cc4)o3)c2c1 | y
CCCn1c2cc(OCc3cn(-c4ccc(Cl)cc4)nn3)ccc2c2ccnc(C)c21 | n
N#Cc1c(-c2ccc(F)cc2)nc(N=Nc2c(O)[nH]c3ccc(Cl)cc23)nc1N1CCOCC1 | y
N#Cc1c(NC(=O)c2cccs2)[n+]([O-])c2cc(C(F)(F)F)ccc2[n+]1[O-] | n
COc1ccc2nc(-c3ccc(OC)c(OC)c3)cc(-c3nnc(SCC(=O)Nc4ccc(C(C)=O)cc4)o3)c2c1 | n
COc1ccc2[nH]c(-c3ccccc3)c(C=C(C#N)C#N)c2c1 | y
c1ccc(-c2cn3ccnc3c(-c3ccc4c(c3)ncn4C3CCCCC3)n2)cc1 | n
Nc1c(C(=O)Nc2cccc3ccccc23)sc2nc3c(cc12)COCC3 | y
O=C(Nc1nc(-c2ccccc2Cl)cs1)c1cc(-c2ccc(Br)cc2)nc2ccccc12 | y
Cc1cc(Cl)cc(CN(Cc2ccccc2)Cc2c(O)ccc3ccccc23)c1O | n
COc1ccc(C2N(c3cc(OC)c(OC)c(OC)c3)C(=O)C2(F)F)cc1F (stereo not given) | y
N#Cc1ccc(Oc2ccc3ccc(=O)oc3c2)cc1 | n
C#C[C@@]1(O)[C@@H](CO)O[C@@H](n2cc(-c3ccco3)c3c(N)ncnc32)[C@@H]1O | y
COc1c(O)cc2oc3cc(O[C@@H]4OC(C)[C@@H](O)[C@H](O)C4O)c(CC=C(C)C)c(O)c3c(=O)c2c1CC=C(C)C (stereo not given in full) | n
COc1ccc2c(c1)Oc1nc(N)c(C#N)c(N)c1C2Sc1ccc(O)cc1 (stereo not given) | n
C=C(C)[C@@H]1CC[C@]2(C(N)=O)CC[C@]3(C)[C@H](CC[C@@H]4[C@@]5(C)CCCNC(C)(C)[C@@H]5CC[C@]43C)[C@@H]12 | n
N#C/C(=C/c1ccc(O)c([N+](=O)[O-])c1)c1nc(-c2ccc([N+](=O)[O-])cc2)cs1 | y
OCCNc1nc(NCCO)nc(Nc2ccc(C3=NN(c4cc(Cl)cc(Cl)c4)C(c4ccc(C(F)(F)F)cc4)C3)cc2)n1 (stereo not given) | y
Cc1cc(C)cc(Nc2nccc(-c3c(-c4ccc(F)cc4)ncn3C3CCNCC3)n2)c1 | y

---

Measured growth, listed per entry.
tested on: A549/ATCC NSCLC; test: NCI-60 one-dose screen, 48 h (100 = growth as untreated, 0 = no growth, -100 = all killed); settings: 10 µM unless noted
This is part of a sample that, as a whole, favours compounds with a hit. Of some 83,000 tested, about 20% had one in any assay.

compound | growth [%]
COc1ccc(Nc2nc(SCC(C)C)nc(-c3ccc(F)cc3)c2C#N)cc1 | 62.5
N#C/C(=C/c1ccc(O)c([N+](=O)[O-])c1)c1nc(-c2ccc([N+](=O)[O-])cc2)cs1 | 27.1
O=C(O)COc1ccc2c(=O)c3sc4c(=O)c5ccccc5c(=O)c4c3c(=O)c2c1 | -44.8
NC(=O)c1ccc(C2C3=C(CCCC3=O)OC3=C2C(=O)c2ccccc2C3=O)cc1 (stereo not drawn) | 26.7
C#C[C@@]1(O)[C@@H](CO)O[C@@H](n2cc(F)c3c(N)ncnc32)[C@@H]1O | -37.9
CSc1nc(-c2ccc(F)cc2)c(C#N)c(N2CCOCC2)n1 | 88.6
Nc1n[nH]c2cccc(C#Cc3cccc(NC(=O)c4cc(N5CCOCC5)cc(C(F)(F)F)c4)c3)c12 | 69.5
O=C(O)C(C(=O)O)c1cccc2ccccc12 | 94.4
CCCCc1n(Cc2ccc3ccccc3n2)cc[n+]1Cc1ccc2ccccc2c1 | 27
O=C(Nc1ccc(N=Cc2ccccc2O)cc1)NC1C=c2ccccc2=CC1 (stereo not drawn) | 87.9
CCSc1ccc(C2C(Br)C(=O)N2c2cc(OC)c(OC)c(OC)c2)cc1 (stereo not drawn) | 18.2
CCCCc1nc(Cl)c(C2CC(c3ccc(Cl)cc3)=NN2c2cc(Cl)cc(Cl)c2)[nH]1 (stereo not drawn) | 8.64
COc1cc2c(Nc3ccc(NC(=O)Nc4ccc(Cl)c(C(F)(F)F)c4)c(Cl)c3)ncnc2cc1OCCCN1CCN(C)CC1 | 20.8
Cc1cc(C)nc(NS(=O)(=O)c2ccc(Nc3ccc4c5c(n(CCCN(C)C)c(=O)c4c3)-c3ccccc3C5=O)cc2)n1 | 52.3
COc1ccc2nc(-c3ccc(OC)c(OC)c3)cc(-c3nnc(SCC(=O)Nc4ccc(/C(C)=N\O)cc4)n3-c3ccccc3)c2c1 | 70.7
NS(=O)(=O)c1ccc(-n2ncc(NC(=O)Nc3ccc(S(=O)(=O)Nc4nccs4)cc3)c2-c2ccccc2)cc1 | 98.5
CC(=O)[C@@H]1CC[C@]2(C(=O)O)CC[C@]3(C)[C@H](CC[C@@H]4[C@@]5(C)Cc6c([nH]c7ccccc67)C(C)(C)[C@@H]5CC[C@]43C)[C@@H]12 | 31.4
Cc1cccc(C)c1NCc1nnc(-c2ccco2)o1 | 86.8

---

Tested on: SF-295 CNS
Experiment: NCI-60 one-dose screen, 48 h
Settings: 10 µM unless noted
Procedure: Cells are grown in 96 well plates and exposed to the test compound for 48 hours. Compounds are tested at a single concentration, which is 10^-5 M for most compounds. The reported endpoint is percent growth (GI% or GIPRCNT), where numbers from 0 - 100% represent growth inhibition, and numbers from -100% - 0 represent cell death. For example, a value of 40 represents 60% growth inhibition. A value of 0 means no net growth occurred over the course of the experiment. […]
Compounds without any hit were thinned out: in the full panel of roughly 83,000, 20% have a hit. Active and inactive are the calls of the source. How the source made its calls: active means growth percent below 10; inactive means the rest.
Outcome codes: t = active, f = inactive

compound | assigned-class
COc1ccc2[nH]c(=O)c(/C=C/C(=O)c3ccccc3OC)cc2c1 | t
Cc1c(Br)cccc1NC(=O)c1sc2nc3c(cc2c1N)CN(Cc1ccccc1)CC3 | f
COc1cc(NC(=O)c2cc(O)c(C/C=C(\C)CCC=C(C)C)c(O)c2)cc2c1O[C@]1(C)CC[C@@H](O)C(C)(C)[C@H]1C2 | t
O=C(Nc1nc2ccc(C(F)(F)F)cc2s1)c1cc(Cl)ccc1O | t
CCCCCCCCCCCCCC1=NCC[N+]1(CCO)Cc1ccccc1 (centres undefined) | t
C=C1C(=O)O[C@H]2[C@H]1CC/C(COC(=O)CCC(=O)OC/C1=C/CC[C@@]3(C)O[C@H]3[C@H]3OC(=O)C(=C)[C@@H]3CC1)=C\CC[C@@]1(C)O[C@@H]21 | f
COc1cc2nc3c(=O)n(CCN(C)C)cnn3c(=O)c2cc1OC | f
O=[N+]([O-])c1ccc(N=Nc2c(O)c(N=Nc3cc([N+](=O)[O-])cc([N+](=O)[O-])c3O)cc(N=Nc3cc(S(=O)(=O)O)cc4cc(S(=O)(=O)O)cc(O)c34)c2O)cc1 | f
c1ccc2c3c([nH]c2c1)C(c1ccc(C2NCCc4c2[nH]c2ccccc42)cc1)NCC3 (centres undefined) | t
